Source: PubChem BioAssay AID588487

# subject_of_test: Protein-arginine deiminase type-1 (Homo sapiens) (UniProt Q9ULC6)
# Sequence (Q9ULC6 whole entry, looked up): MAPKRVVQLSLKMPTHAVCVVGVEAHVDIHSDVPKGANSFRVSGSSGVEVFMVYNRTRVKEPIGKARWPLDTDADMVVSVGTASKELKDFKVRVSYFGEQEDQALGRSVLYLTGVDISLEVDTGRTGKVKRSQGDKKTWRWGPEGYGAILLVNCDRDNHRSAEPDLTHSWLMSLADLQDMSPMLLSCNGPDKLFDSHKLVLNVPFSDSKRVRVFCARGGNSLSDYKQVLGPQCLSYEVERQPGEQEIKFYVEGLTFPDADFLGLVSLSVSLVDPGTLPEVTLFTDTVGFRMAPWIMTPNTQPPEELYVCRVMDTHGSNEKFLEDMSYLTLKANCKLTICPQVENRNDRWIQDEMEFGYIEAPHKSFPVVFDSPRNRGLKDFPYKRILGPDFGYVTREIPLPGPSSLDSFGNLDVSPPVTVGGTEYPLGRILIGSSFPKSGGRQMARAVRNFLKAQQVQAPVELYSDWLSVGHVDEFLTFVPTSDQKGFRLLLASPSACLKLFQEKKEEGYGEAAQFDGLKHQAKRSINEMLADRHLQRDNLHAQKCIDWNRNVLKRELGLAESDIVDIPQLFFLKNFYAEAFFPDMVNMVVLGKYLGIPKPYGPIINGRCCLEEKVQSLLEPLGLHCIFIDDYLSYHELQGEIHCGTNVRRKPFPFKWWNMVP
# assay_info: PAD1-4 inhibition by competitive ABPP, late-stage follow-up, orthogonal assay for PAD4 inhibitor project, biochemical, fluorescence, gel-based ABPP, HTS hits (AID 588487)
# condition_description: recombinant PAD1-4, gel-based ABPP, RFA probe fluorescence; PAD1; at 10 µM
The source made the active and inactive calls.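 The calls were made as follows: active = inhibition of at least 50% against any of four protein arginine deiminase enzymes; inactive = the rest.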
Classes used: YES (active), NO (inactive)

>  <compound>
O=C(O)CCC(=O)Nc1ccc(SSc2ccc(NC(=O)CCC(=O)O)cc2)cc1

>  <subject_of_test>
Protein-arginine deiminase type-1 (Homo sapiens) (UniProt Q9ULC6)

>  <category_label>
NO

$$$$
>  <compound>
Cn1c(SCC(=O)N/N=C/C=C/c2ccco2)nc2ccccc21

>  <subject_of_test>
Protein-arginine deiminase type-1 (Homo sapiens) (UniProt Q9ULC6)

>  <category_label>
NO

$$$$
>  <compound>
O=c1cc(-c2ccc(Cl)cc2)[nH][nH]1

>  <subject_of_test>
Protein-arginine deiminase type-1 (Homo sapiens) (UniProt Q9ULC6)

>  <category_label>
NO

$$$$
>  <compound>
COc1ccc(CCNC(=O)COC(=O)c2ccc(C)s2)cc1

>  <subject_of_test>
Protein-arginine deiminase type-1 (Homo sapiens) (UniProt Q9ULC6)

>  <category_label>
NO

$$$$
>  <compound>
COC(=O)c1cc(C)nc(Sc2ccccc2N)n1

>  <subject_of_test>
Protein-arginine deiminase type-1 (Homo sapiens) (UniProt Q9ULC6)

>  <category_label>
NO

$$$$
>  <compound>
COc1cccc2cc(C(=O)NC3CC(C)(C)NC(C)(C)C3)c(=O)oc12

>  <subject_of_test>
Protein-arginine deiminase type-1 (Homo sapiens) (UniProt Q9ULC6)

>  <category_label>
NO

$$$$
>  <compound>
CC(=O)N(Cc1cc(=O)[nH]c2ccccc12)c1cccc(C)c1

>  <subject_of_test>
Protein-arginine deiminase type-1 (Homo sapiens) (UniProt Q9ULC6)

>  <category_label>
YES

$$$$
>  <compound>
Cc1nn(-c2ccccc2)c(C)c1NC(=O)COc1ccc(Cl)cc1Cl

>  <subject_of_test>
Protein-arginine deiminase type-1 (Homo sapiens) (UniProt Q9ULC6)

>  <category_label>
NO

$$$$
>  <compound>
CCOC(=O)N1CCC(c2cc(=O)n(-c3ccccc3)[nH]2)CC1

>  <subject_of_test>
Protein-arginine deiminase type-1 (Homo sapiens) (UniProt Q9ULC6)

>  <category_label>
NO

$$$$
>  <compound>
CN(C)C(CNC(=O)c1cc2ccccc2o1)c1ccco1 (stereo not drawn)

>  <subject_of_test>
Protein-arginine deiminase type-1 (Homo sapiens) (UniProt Q9ULC6)

>  <category_label>
NO

$$$$
>  <compound>
CCN(CC)S(=O)(=O)c1ccc(N=NC2=C(O)CCCC2=O)cc1

>  <subject_of_test>
Protein-arginine deiminase type-1 (Homo sapiens) (UniProt Q9ULC6)

>  <category_label>
NO

$$$$
>  <compound>
COc1ccc(-c2cc(=O)n(CCC#N)[nH]2)cc1

>  <subject_of_test>
Protein-arginine deiminase type-1 (Homo sapiens) (UniProt Q9ULC6)

>  <category_label>
NO

$$$$
>  <compound>
COCc1cc(C)nc(SCC(=O)Nc2ccc3c(c2)n(C)c(=O)n3C)c1C#N

>  <subject_of_test>
Protein-arginine deiminase type-1 (Homo sapiens) (UniProt Q9ULC6)

>  <category_label>
NO

$$$$
>  <compound>
COc1ccc(C2C(C#N)=C(N)N(N(C)C)C3=C2C(=O)CCC3)cc1 (stereo not drawn)

>  <subject_of_test>
Protein-arginine deiminase type-1 (Homo sapiens) (UniProt Q9ULC6)

>  <category_label>
NO

$$$$
>  <compound>
COc1ccc(/C=C2/C(=O)N(c3ccccc3)N=C2C)cc1

>  <subject_of_test>
Protein-arginine deiminase type-1 (Homo sapiens) (UniProt Q9ULC6)

>  <category_label>
NO

$$$$
>  <compound>
COc1ccc(OC)c(C2C(C#N)=C(N)Oc3c2c(C)nn3-c2ccc(C)cc2)c1 (stereo not drawn)

>  <subject_of_test>
Protein-arginine deiminase type-1 (Homo sapiens) (UniProt Q9ULC6)

>  <category_label>
NO

$$$$
>  <compound>
COc1cc(NC2c3ccccc3C(=O)N2Cc2ccccc2Cl)cc(OC)c1 (stereo not drawn)

>  <subject_of_test>
Protein-arginine deiminase type-1 (Homo sapiens) (UniProt Q9ULC6)

>  <category_label>
NO

$$$$
>  <compound>
O=c1cc(-c2ccc(F)cc2)[nH][nH]1

>  <subject_of_test>
Protein-arginine deiminase type-1 (Homo sapiens) (UniProt Q9ULC6)

>  <category_label>
NO

$$$$
>  <compound>
Cc1cc(C)c(C)c(S(=O)(=O)N2CCC(C(=O)N3CCCC3)CC2)c1C

>  <subject_of_test>
Protein-arginine deiminase type-1 (Homo sapiens) (UniProt Q9ULC6)

>  <category_label>
NO

$$$$
>  <compound>
CCOc1nc(Nc2ccc(OC)cc2OC)nc(OCC)n1

>  <subject_of_test>
Protein-arginine deiminase type-1 (Homo sapiens) (UniProt Q9ULC6)

>  <category_label>
NO

$$$$
>  <compound>
Cc1cc(C)cc(NC(=S)/C(=C(\[O-])c2ccc(Cl)s2)[n+]2cccc(C)c2)c1

>  <subject_of_test>
Protein-arginine deiminase type-1 (Homo sapiens) (UniProt Q9ULC6)

>  <category_label>
NO

$$$$
>  <compound>
Cc1cc(-c2nnc(SCC(=O)Nc3ccc(F)c(F)c3)n2N)n[nH]1

>  <subject_of_test>
Protein-arginine deiminase type-1 (Homo sapiens) (UniProt Q9ULC6)

>  <category_label>
NO

$$$$
>  <compound>
COc1ccc(-c2nc(C(=O)NCCCN3CCOCC3)cc3c2[nH]c2ccccc23)cc1OC

>  <subject_of_test>
Protein-arginine deiminase type-1 (Homo sapiens) (UniProt Q9ULC6)

>  <category_label>
NO

$$$$
